B1: MTMR15 (parent)
chain: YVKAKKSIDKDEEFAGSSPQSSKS

# Variants of: B1
# assay.name: protein stability index of a GFP-peptide fusion (GPS, HEK-293T) (PSI 1-6); higher = more stable;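 also: lentivirally expressed fusions sorted by FACS into six bins by GFP to DsRed ratio, PSI derived from sequencing read proportions per bin multiplied by bin number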
# condition: c terminus: a fixed tail appended
# if value of protein stability index reaches 3, tag true (1); if it stays below, tag false (0)

| sequence.input | discrete.label |
| --- | --- |
| CVKAKKSIDKDEEFAGSSPQSSKS [Y1C] | true (1) |
| YVKTKKSIDKDEEFAGSSPQSSKS [A4T] | false (0) |
| YVKKKKSIDKDEEFAGSSPQSSKS [A4K] | true (1) |
| YVKAKSSIDKDEEFAGSSPQSSKS [K6S] | false (0) |
| YVKAKKSIDKDEEFVGSSPQSSKS [A15V] | true (1) |

stdin: Answer whether protein stability index of YVKAKKSIDKDEEFAGKSPQSSKS [S17K] is greater than or equal to 3.
stdout: true (1)

stdin: Answer whether protein stability index of YVKAKVSIDKDEEFAGSSPQSSKS [K6V] is greater than or equal to 3.
stdout: false (0)

stdin: Answer whether protein stability index of YVKAKKSIDKDEEFAGSWPQSSKS [S18W] is greater than or equal to 3.
stdout: false (0)

stdin: Answer whether protein stability index of YVKAKKSIDKDEEFAGSSPQSSKT [S24T] is greater than or equal to 3.
stdout: false (0)

stdin: Answer whether protein stability index of YVKAKKSIDKDIEFAGSSPQSSKS [E12I] is greater than or equal to 3.
stdout: false (0)

stdin: Answer whether protein stability index of YVKAKKSHDKDEEFAGSSPQSSKS [I8H] is greater than or equal to 3.
stdout: true (1)

stdin: Answer whether protein stability index of YLKAKKSIDKDEEFAGSSPQSSKS [V2L] is greater than or equal to 3.
stdout: true (1)

stdin: Answer whether protein stability index of YVKAKKSIYKDEEFAGSSPQSSKS [D9Y] is greater than or equal to 3.
stdout: false (0)

stdin: Answer whether protein stability index of YVKAGKSIDKDEEFAGSSPQSSKS [K5G] is greater than or equal to 3.
stdout: false (0)

stdin: Answer whether protein stability index of YVKAKKSIDKDEEFAGSSPQSSKN [S24N] is greater than or equal to 3.
stdout: true (1)

stdin: Answer whether protein stability index of YVKAKKSIDKDPEFAGSSPQSSKS [E12P] is greater than or equal to 3.
stdout: false (0)

stdin: Answer whether protein stability index of YVKAKWSIDKDEEFAGSSPQSSKS [K6W] is greater than or equal to 3.
stdout: false (0)
